# measurement_target: dengue 2 protease (Dengue virus type 2, UniProt P14340)
# Construct: The active site of the dengue protease is in the N-terminal part of NS3
# Sequence (P14340 1476-1653): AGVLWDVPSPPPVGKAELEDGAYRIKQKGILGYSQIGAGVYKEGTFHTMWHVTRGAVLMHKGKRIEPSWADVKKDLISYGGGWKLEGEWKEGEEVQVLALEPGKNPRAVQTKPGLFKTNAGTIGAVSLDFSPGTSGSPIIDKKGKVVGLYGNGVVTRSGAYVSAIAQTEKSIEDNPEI
# measurement_notes: Dengue 2 protease inhibition, hydrolysis of Z-RR-MCA
# Format: biochemical, dengue 2 virus
# test_settings: 10 μM inhibitor, 36.5° C.
Residues, ends and D or L forms follow the SMILES beside them.

| compound | activity at 10 µM [%] |
| --- | --- |
| CCCCCCCCCCCCCCCCNC(=O)[C@H](CCCCN)NC(=O)CNC(=O)CNC(=O)CNC(=O)[C@H](CCCCN)NC(=O)CCCCCCCCCCCCCCC [C16-KGGGK-C16, C15H31CO-KGGGK-NH—C16H33] (HELM PEPTIDE1{[CCCCCCCCCCCCCCCC(=O)[*:2]].K.G.G.G.K.[CCCCCCCCCCCCCCCCN[*:1]]}$$$$V2.0) | 80 |
| CCCCCCCCCCCCCCCCNC(=O)[C@H](CCCCN)NC(=O)[C@H](C)NC(=O)[C@H](CCCCN)NC(=O)CCCCCCCCCCCCCCC [C16-KAK-C16] | 26 |
| CCCCCCCCCCCCCCCCNC(=O)[C@H](CCCCN)NC(=O)[C@H](C)NC(=O)[C@H](C)NC(=O)[C@H](C)NC(=O)[C@H](C)NC(=O)[C@H](CCCCN)NC(=O)CCCCCCCCCCCCCCC [C16-KAAAAK-C16] (HELM PEPTIDE1{[CCCCCCCCCCCCCCCC(=O)[*:2]].K.A.A.A.A.K.[CCCCCCCCCCCCCCCCN[*:1]]}$$$$V2.0) | 85 |
| CCCCCCCCCCCCCCCCNC(=O)[C@H](CCCCN)NC(=O)CNC(=O)[C@H](CCCCN)NC(=O)CCCCCCCCCCCCCCC [C16-KGK-C16, C15H31CO-KGK-NH—C16H33] | 54 |
| CCCCCCCCCCCCCCCCNC(=O)[C@H](CCCCN)NC(=O)CNC(=O)CNC(=O)CNC(=O)CNC(=O)[C@H](CCCCN)NC(=O)CCCCCCCCCCCCCCC [C16KG4KC16] (HELM PEPTIDE1{[CCCCCCCCCCCCCCCC(=O)[*:2]].K.G.G.G.G.K.[CCCCCCCCCCCCCCCCN[*:1]]}$$$$V2.0) | 78 |
| CCCCCCCCCCCCCCCCNC(=O)[C@H](CCCCN)NC(=O)CNC(=O)CNC(=O)[C@H](CCCCN)NC(=O)CCCCCCCCCCCCCCC [C16-KGGK-C16, C15H31CO-KGGK-NH—C16H33] (HELM PEPTIDE1{[CCCCCCCCCCCCCCCC(=O)[*:2]].K.G.G.K.[CCCCCCCCCCCCCCCCN[*:1]]}$$$$V2.0) | 84 |
| CCCCCCCCCCCCCCCCNC(=O)[C@H](CCCCN)NC(=O)[C@H](C)NC(=O)[C@H](C)NC(=O)[C@H](C)NC(=O)[C@H](CCCCN)NC(=O)CCCCCCCCCCCCCCC [C16-KAAAK-C16] (HELM PEPTIDE1{[CCCCCCCCCCCCCCCC(=O)[*:2]].K.A.A.A.K.[CCCCCCCCCCCCCCCCN[*:1]]}$$$$V2.0) | 75 |
| CCCCCCCCCCCCCCCCNC(=O)[C@H](CCCCN)NC(=O)[C@H](C)NC(=O)[C@H](C)NC(=O)[C@H](CCCCN)NC(=O)CCCCCCCCCCCCCCC [C16-KAAK-C16] (HELM PEPTIDE1{[CCCCCCCCCCCCCCCC(=O)[*:2]].K.A.A.K.[CCCCCCCCCCCCCCCCN[*:1]]}$$$$V2.0) | 68 |

Values compiled from patent US20220017572A1.
